Catalogue of compounds with associated Fluorescence time course, Clostridium
System: Clostridium diaphorase
Assay: Fluorescent NADH detection assay, Clostridium diaphorase
Type: biochemical
Conditions: 60 min; 10 uM NADH
Give the value in FLUs but do not write FLUs after it.

Illustrative cases are given below, each with its answer.
CC1=C(C)C(=O)C(C(C)(C)CC(=O)N(C)CCN(C)C(=O)Oc2ccc3c(c2)Oc2cc(OC(=O)N(C)CCN(C)C(=O)CC(C)(C)C4=C(C)C(=O)C(C)=C(C)C4=O)ccc2C32OC(=O)c3ccccc32)=C(C)C1=O [PBI 4441]	2570
CC1=CC(=O)C(C)=C(C(C)(C)CC(=O)N(C)CCN(C)C(=O)Oc2ccc3c(c2)Oc2cc(O)ccc2C32OC(=O)c3ccccc32)C1=O (stereo not shown) [PBI 4412]	125352
CC1=CC(=O)C(C)=C(C(C)(C)CC(=O)N(C)CCN(C)C(=O)Oc2ccc3c(c2)Oc2cc(OC(=O)N(C)CCN(C)C(=O)CC(C)(C)C4=C(C)C(=O)C=C(C)C4=O)ccc2C32OC(=O)c3ccccc32)C1=O [PBI 4413]	3664

Query compound follows.
Need Fluorescence time course, Clostridium of CC1=C(C)C(=O)C(C(C)(C)CC(=O)N(C)CCN(C)C(=O)Oc2ccc3c(c2)Oc2cc(O)ccc2C32OC(=O)c3ccccc32)=C(C)C1=O (stereo not shown) [PBI 4440] , thanks.
43362

---

System: Clostridium diaphorase
Test: Fluorescent NADH detection assay, Clostridium diaphorase
Type: biochemical
Conditions: 80 min; 10 uM NADH
Catalogue of compounds with associated Fluorescence time course, Clostridium
Give the value in FLUs but do not write FLUs after it.

Illustrative cases are given below, each with its answer.
CC1=CC(=O)C(C)=C(C(C)(C)CC(=O)N(C)CCN(C)C(=O)Oc2ccc3c(c2)Oc2cc(OC(=O)N(C)CCN(C)C(=O)CC(C)(C)C4=C(C)C(=O)C=C(C)C4=O)ccc2C32OC(=O)c3ccccc32)C1=O [PBI 4413]	3841
CC1=CC(=O)C(C)=C(C(C)(C)CC(=O)N(C)CCN(C)C(=O)Oc2ccc3c(c2)Oc2cc(O)ccc2C32OC(=O)c3ccccc32)C1=O (stereo not shown) [PBI 4412]	125242

Need Fluorescence time course, Clostridium of CC1=C(C)C(=O)C(C(C)(C)CC(=O)N(C)CCN(C)C(=O)Oc2ccc3c(c2)Oc2cc(OC(=O)N(C)CCN(C)C(=O)CC(C)(C)C4=C(C)C(=O)C(C)=C(C)C4=O)ccc2C32OC(=O)c3ccccc32)=C(C)C1=O [PBI 4441] , thanks.
2561

Need Fluorescence time course, Clostridium of CC1=C(C)C(=O)C(C(C)(C)CC(=O)N(C)CCN(C)C(=O)Oc2ccc3c(c2)Oc2cc(O)ccc2C32OC(=O)c3ccccc32)=C(C)C1=O (stereo not shown) [PBI 4440] , thanks.
43425

---

Target: rat diaphorase (Rattus norvegicus, UniProt P05982)
Construct: purchased Sigma
Format: biochemical
Details: 50 min; 10 uM NADH
Catalogue of molecules with associated Fluorescence time course, Rat
Give the value in FLUs but do not write FLUs after it.

CC1=C(C)C(=O)C(C(C)(C)CC(=O)N(C)CCN(C)C(=O)Oc2ccc3c(c2)Oc2cc(OC(=O)N(C)CCN(C)C(=O)CC(C)(C)C4=C(C)C(=O)C(C)=C(C)C4=O)ccc2C32OC(=O)c3ccccc32)=C(C)C1=O [PBI 4441]	6457
CC1=CC(=O)C(C)=C(C(C)(C)CC(=O)N(C)CCN(C)C(=O)Oc2ccc3c(c2)Oc2cc(O)ccc2C32OC(=O)c3ccccc32)C1=O (stereo not shown) [PBI 4412]	162636
CC1=CC(=O)C(C)=C(C(C)(C)CC(=O)N(C)CCN(C)C(=O)Oc2ccc3c(c2)Oc2cc(OC(=O)N(C)CCN(C)C(=O)CC(C)(C)C4=C(C)C(=O)C=C(C)C4=O)ccc2C32OC(=O)c3ccccc32)C1=O [PBI 4413]	6127

Query molecule follows.
Need Fluorescence time course, Rat of CC1=C(C)C(=O)C(C(C)(C)CC(=O)N(C)CCN(C)C(=O)Oc2ccc3c(c2)Oc2cc(O)ccc2C32OC(=O)c3ccccc32)=C(C)C1=O (stereo not shown) [PBI 4440] , thanks.
178374

---

Molecular target: rat diaphorase (Rattus norvegicus, UniProt P05982)
Construct: purchased Sigma
Type: biochemical
Conditions: 4 min; 10 uM NADH
Catalogue of compounds with associated Fluorescence time course, Rat
Give the value in FLUs but do not write FLUs after it.

Illustrative cases are given below, each with its answer.
CC1=C(C)C(=O)C(C(C)(C)CC(=O)N(C)CCN(C)C(=O)Oc2ccc3c(c2)Oc2cc(O)ccc2C32OC(=O)c3ccccc32)=C(C)C1=O (stereo not shown)	18626
CC1=CC(=O)C(C)=C(C(C)(C)CC(=O)N(C)CCN(C)C(=O)Oc2ccc3c(c2)Oc2cc(O)ccc2C32OC(=O)c3ccccc32)C1=O (stereo not shown)	24171
CC1=CC(=O)C(C)=C(C(C)(C)CC(=O)N(C)CCN(C)C(=O)Oc2ccc3c(c2)Oc2cc(OC(=O)N(C)CCN(C)C(=O)CC(C)(C)C4=C(C)C(=O)C=C(C)C4=O)ccc2C32OC(=O)c3ccccc32)C1=O	419

Query compound follows.
Need Fluorescence time course, Rat of `CC1=C(C)C(=O)C(C(C)(C)CC(=O)N(C)CCN(C)C(=O)Oc2ccc3c(c2)Oc2cc(OC(=O)N(C)CCN(C)C(=O)CC(C)(C)C4=C(C)C(=O)C(C)=C(C)C4=O)ccc2C32OC(=O)c3ccccc32)=C(C)C1=O` , thanks.
608

---

Molecular target: rat diaphorase (Rattus norvegicus, UniProt P05982)
Construct: purchased Sigma
Sequence (P05982 2-274 limits assumed): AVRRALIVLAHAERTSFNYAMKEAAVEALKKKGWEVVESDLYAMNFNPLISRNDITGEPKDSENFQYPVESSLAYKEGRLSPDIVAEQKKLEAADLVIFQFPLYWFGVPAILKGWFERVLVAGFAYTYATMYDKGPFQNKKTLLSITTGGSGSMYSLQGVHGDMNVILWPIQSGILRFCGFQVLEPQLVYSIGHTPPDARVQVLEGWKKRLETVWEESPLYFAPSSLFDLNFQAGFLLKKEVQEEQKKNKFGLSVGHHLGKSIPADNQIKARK
Format: biochemical
Conditions: 5 min; 10 uM NADH
Catalogue of molecules with associated Fluorescence time course, Rat
Give the value in FLUs but do not write FLUs after it.

CC1=CC(=O)C(C)=C(C(C)(C)CC(=O)N(C)CCN(C)C(=O)Oc2ccc3c(c2)Oc2cc(O)ccc2C32OC(=O)c3ccccc32)C1=O (stereo not shown)	33247
CC1=C(C)C(=O)C(C(C)(C)CC(=O)N(C)CCN(C)C(=O)Oc2ccc3c(c2)Oc2cc(O)ccc2C32OC(=O)c3ccccc32)=C(C)C1=O (stereo not shown)	28997
CC1=CC(=O)C(C)=C(C(C)(C)CC(=O)N(C)CCN(C)C(=O)Oc2ccc3c(c2)Oc2cc(OC(=O)N(C)CCN(C)C(=O)CC(C)(C)C4=C(C)C(=O)C=C(C)C4=O)ccc2C32OC(=O)c3ccccc32)C1=O	545

Need Fluorescence time course, Rat of `CC1=C(C)C(=O)C(C(C)(C)CC(=O)N(C)CCN(C)C(=O)Oc2ccc3c(c2)Oc2cc(OC(=O)N(C)CCN(C)C(=O)CC(C)(C)C4=C(C)C(=O)C(C)=C(C)C4=O)ccc2C32OC(=O)c3ccccc32)=C(C)C1=O` , thanks.
827

---

Catalogue of molecules with associated Fluorescence time course, Rat
Target: rat diaphorase (Rattus norvegicus, UniProt P05982)
Construct: purchased Sigma
Type: biochemical
Details: 40 min; 10 uM NADH
Give the value in FLUs but do not write FLUs after it.

Illustrative cases are given below, each with its answer.
CC1=C(C)C(=O)C(C(C)(C)CC(=O)N(C)CCN(C)C(=O)Oc2ccc3c(c2)Oc2cc(OC(=O)N(C)CCN(C)C(=O)CC(C)(C)C4=C(C)C(=O)C(C)=C(C)C4=O)ccc2C32OC(=O)c3ccccc32)=C(C)C1=O	5442
CC1=CC(=O)C(C)=C(C(C)(C)CC(=O)N(C)CCN(C)C(=O)Oc2ccc3c(c2)Oc2cc(OC(=O)N(C)CCN(C)C(=O)CC(C)(C)C4=C(C)C(=O)C=C(C)C4=O)ccc2C32OC(=O)c3ccccc32)C1=O	4669
CC1=C(C)C(=O)C(C(C)(C)CC(=O)N(C)CCN(C)C(=O)Oc2ccc3c(c2)Oc2cc(O)ccc2C32OC(=O)c3ccccc32)=C(C)C1=O (stereo not shown)	173345

Need Fluorescence time course, Rat of CC1=CC(=O)C(C)=C(C(C)(C)CC(=O)N(C)CCN(C)C(=O)Oc2ccc3c(c2)Oc2cc(O)ccc2C32OC(=O)c3ccccc32)C1=O (stereo not shown) , thanks.
151941

---

Tested on: Clostridium diaphorase
Assay: Fluorescent NADH detection assay, Clostridium diaphorase
Assay type: biochemical
Conditions: 100 min; 10 uM NADH
Catalogue of compounds with associated Fluorescence time course, Clostridium
Write the figure, then the unit, nothing else.

CC1=C(C)C(=O)C(C(C)(C)CC(=O)N(C)CCN(C)C(=O)Oc2ccc3c(c2)Oc2cc(O)ccc2C32OC(=O)c3ccccc32)=C(C)C1=O (stereo not shown) [PBI 4440]	43296 FLUs
CC1=C(C)C(=O)C(C(C)(C)CC(=O)N(C)CCN(C)C(=O)Oc2ccc3c(c2)Oc2cc(OC(=O)N(C)CCN(C)C(=O)CC(C)(C)C4=C(C)C(=O)C(C)=C(C)C4=O)ccc2C32OC(=O)c3ccccc32)=C(C)C1=O [PBI 4441]	2555 FLUs
CC1=CC(=O)C(C)=C(C(C)(C)CC(=O)N(C)CCN(C)C(=O)Oc2ccc3c(c2)Oc2cc(OC(=O)N(C)CCN(C)C(=O)CC(C)(C)C4=C(C)C(=O)C=C(C)C4=O)ccc2C32OC(=O)c3ccccc32)C1=O [PBI 4413]	3801 FLUs

Query compound follows.
Item CC1=CC(=O)C(C)=C(C(C)(C)CC(=O)N(C)CCN(C)C(=O)Oc2ccc3c(c2)Oc2cc(O)ccc2C32OC(=O)c3ccccc32)C1=O (stereo not shown) [PBI 4412] with Clostridium diaphorase - Fluorescence time course, Clostridium?
124434 FLUs
